Consider the following compounds; for each one, report its log10 of Ki.
tgt: JAK1 (Homo sapiens, UniProt P23458)
Construct: made in house; host or cells: SF9 insect cells (baculovirus)
Sequence (P23458 852-1154): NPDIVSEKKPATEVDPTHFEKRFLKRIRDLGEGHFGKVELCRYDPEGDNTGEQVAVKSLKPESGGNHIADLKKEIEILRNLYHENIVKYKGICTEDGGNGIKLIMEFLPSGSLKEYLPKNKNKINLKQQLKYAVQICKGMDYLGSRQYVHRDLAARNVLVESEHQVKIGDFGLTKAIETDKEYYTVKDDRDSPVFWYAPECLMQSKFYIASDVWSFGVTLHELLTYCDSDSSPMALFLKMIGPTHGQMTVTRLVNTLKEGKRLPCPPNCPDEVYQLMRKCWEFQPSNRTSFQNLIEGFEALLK
experiment: JAK1 inhibition (Table 4)
Type: biochemical
experimental parameters: read-out: JAK1 Ki
Log scale reminder: Ki in nM, then log10 taken.

Ask: Return reported log10 of Ki. Input compound: c1cc2c(ncc3nc([C@H]4CCCN4)n([C@H]4CCCOC4)c32)[nH]1 [Example 667]
Result: 2.06

Ask: Return reported log10 of Ki. Input compound: O=C(N[C@H]1CC[C@H](n2cnc3cnc4[nH]ccc4c32)CC1)C1CC1 [Example 572]
Result: 1.06

Ask: Return reported log10 of Ki. Input compound: COCC(=O)NC1CCC(n2cnc3cnc4[nH]ccc4c32)CC1 (centres unmarked) [Example 887]
Result: 1.05

Ask: Return reported log10 of Ki. Input compound: CN1CCCC(C(=O)N2CCC(n3cnc4cnc5[nH]ccc5c43)CC2)C1 (single isomer, unassigned) [Example 453]
Result: 2.42

Ask: Return reported log10 of Ki. Input compound: FC(F)(F)CNC1CCC(n2nnc3cnc4[nH]ccc4c32)C1 (racemic) [Example 718]
Result: 1.01

Ask: Return reported log10 of Ki. Input compound: O=C(Cc1nc2cnc3[nH]ccc3c2n1C1CCCOC1)N1CCN(CCO)CC1 (racemic) [Example 976]
Result: 1.51

Ask: Return reported log10 of Ki. Input compound: c1ccc(N2CCC[C@@H](n3cnc4cnc5[nH]ccc5c43)C2)cc1 [Example 12]
Result: 1.49

Ask: Return reported log10 of Ki. Input compound: O=C(NCCc1nc2cnc3[nH]ccc3c2n1C1CCCCC1)C1CC1(F)F (racemic) [Example 515]
Result: 0.38

---

tgt: JAK2 (Homo sapiens)
Construct: made in house; host or cells: SF9 insect cells (baculovirus)
Sequence (O60674 812-1132): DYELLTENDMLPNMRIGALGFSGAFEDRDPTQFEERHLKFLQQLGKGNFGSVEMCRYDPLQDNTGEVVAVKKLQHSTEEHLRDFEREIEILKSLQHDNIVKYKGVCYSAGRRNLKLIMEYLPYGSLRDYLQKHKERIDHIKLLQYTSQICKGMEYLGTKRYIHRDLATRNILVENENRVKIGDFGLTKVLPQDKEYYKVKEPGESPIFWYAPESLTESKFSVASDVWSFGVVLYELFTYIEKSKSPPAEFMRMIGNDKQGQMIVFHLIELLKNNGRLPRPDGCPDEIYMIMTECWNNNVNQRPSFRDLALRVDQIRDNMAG
experiment: JAK2 inhibition (Table 4)
Format: biochemical
experimental parameters: read-out: JAK2 Ki
pKi: −log10 of the molar value.
Tag: class 1 if measured pKi is not below 8, class 0 if it is.

Ask: Does pKi meet or surpass 8 for Cc1nc2cnc3[nH]ccc3c2n1C1CCCCC1C (mixture of isomers) [Example 516] ?
Result: class 1

Ask: Does pKi meet or surpass 8 for COC1CN(C)CCC1n1c(C)nc2cnc3[nH]ccc3c21 (racemic) [Example 534] ?
Result: class 0

Ask: Does pKi meet or surpass 8 for N#CCC(=O)N1CCC(F)C(n2nnc3cnc4[nH]ccc4c32)C1 (racemic) [Example 519] ?
Result: class 1

Ask: Does pKi meet or surpass 8 for CS(=O)(=O)N1CC[C@@H](n2cnc3cnc4[nH]ccc4c32)C1 [Example 190] ?
Result: class 0

Ask: Does pKi meet or surpass 8 for OCc1nc2cnc3[nH]ccc3c2n1C1CCCOC1 (single isomer, unassigned) [Example 464] ?
Result: class 0

Ask: Does pKi meet or surpass 8 for COCC(=O)NC1CCCC(n2cnc3cnc4[nH]ccc4c32)C1 (single isomer, unassigned) [Example 482] ?
Result: class 0

Ask: Does pKi meet or surpass 8 for c1ccc(CN2CCC(n3c(Cn4cccn4)nc4cnc5[nH]ccc5c43)CC2)cc1 [Example 201] ?
Result: class 0

Ask: Does pKi meet or surpass 8 for COC[C@H]1CC[C@H](n2c(CNS(C)(=O)=O)nc3cnc4[nH]ccc4c32)CC1 [Example 638] ?
Result: class 0

Ask: Does pKi meet or surpass 8 for N#CCCC1CCC(n2c(C(O)CO)nc3cnc4[nH]ccc4c32)CC1 (stereo not shown) [Example 1006] ?
Result: class 1

Ask: Does pKi meet or surpass 8 for CCCS(=O)(=O)N1CCC(n2c(Cc3conc3C)nc3cnc4[nH]ccc4c32)CC1 [Example 381] ?
Result: class 0

Ask: Does pKi meet or surpass 8 for C[C@@H](O)c1nc2cnc3[nH]ccc3c2n1C1CCCCC1 [Example 672] ?
Result: class 0

Ask: Does pKi meet or surpass 8 for CC1(O)CCC(n2cnc3cnc4[nH]ccc4c32)CC1 (stereo not shown) [Example 993] ?
Result: class 1

Ask: Does pKi meet or surpass 8 for O=C(Cc1nc2cnc3[nH]ccc3c2n1C1CCCOC1)N1CC(F)(F)C1 (racemic) [Example 971] ?
Result: class 0

Ask: Does pKi meet or surpass 8 for Cc1nc(CN2CCC(n3c([C@@H](C)O)nc4cnc5[nH]ccc5c43)CC2)c[nH]1 [Example 902] ?
Result: class 0

Ask: Does pKi meet or surpass 8 for FC(F)(F)CN1CCC(n2cnc3cnc4[nH]ccc4c32)CC1 [Example 175] ?
Result: class 1

Ask: Does pKi meet or surpass 8 for CC1(n2cnc3cnc4[nH]ccc4c32)CCN(CCC#N)CC1 [Example 330] ?
Result: class 0

Ask: Does pKi meet or surpass 8 for O=C(Cc1nc2cnc3[nH]ccc3c2n1C1CCN(Cc2ccccc2)CC1)N1CCC(F)(F)CC1 [Example 217] ?
Result: class 0

Ask: Does pKi meet or surpass 8 for COCCN(C)C(=O)NC1CCC(n2cnc3cnc4[nH]ccc4c32)C1 (racemic) [Example 739] ?
Result: class 0

Ask: Does pKi meet or surpass 8 for O=C(c1ccccc1)N1CCC[C@@H](n2cnc3cnc4[nH]ccc4c32)C1 [Example 6] ?
Result: class 0

Ask: Does pKi meet or surpass 8 for N#Cc1ccc(CN2CCC(n3cnc4cnc5[nH]ccc5c43)CC2)cc1 [Example 48] ?
Result: class 1

Ask: Does pKi meet or surpass 8 for Cc1nc2cnc3[nH]ccc3c2n1[C@H]1CC[C@H](NCC(F)(F)F)CC1 [Example 591] ?
Result: class 1
